compounds and their reported IC50
Tested On: human CP4H1 (Homo sapiens, UniProt P13674)
Sequence (P13674 18-534): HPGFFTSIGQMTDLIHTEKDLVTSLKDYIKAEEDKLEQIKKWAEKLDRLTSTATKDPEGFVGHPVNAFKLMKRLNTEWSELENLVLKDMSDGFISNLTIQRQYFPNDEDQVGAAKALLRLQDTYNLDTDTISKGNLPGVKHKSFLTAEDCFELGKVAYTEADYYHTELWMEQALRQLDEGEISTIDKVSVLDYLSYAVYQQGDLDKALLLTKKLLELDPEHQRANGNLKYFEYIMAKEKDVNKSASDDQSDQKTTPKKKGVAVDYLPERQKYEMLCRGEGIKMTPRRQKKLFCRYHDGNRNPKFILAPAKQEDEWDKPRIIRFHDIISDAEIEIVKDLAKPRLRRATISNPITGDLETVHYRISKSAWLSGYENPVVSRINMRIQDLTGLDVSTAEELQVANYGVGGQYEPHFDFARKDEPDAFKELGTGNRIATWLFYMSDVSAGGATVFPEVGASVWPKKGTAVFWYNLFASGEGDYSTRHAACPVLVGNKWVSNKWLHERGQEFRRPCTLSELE
Sequence (P07237 18-508 partner): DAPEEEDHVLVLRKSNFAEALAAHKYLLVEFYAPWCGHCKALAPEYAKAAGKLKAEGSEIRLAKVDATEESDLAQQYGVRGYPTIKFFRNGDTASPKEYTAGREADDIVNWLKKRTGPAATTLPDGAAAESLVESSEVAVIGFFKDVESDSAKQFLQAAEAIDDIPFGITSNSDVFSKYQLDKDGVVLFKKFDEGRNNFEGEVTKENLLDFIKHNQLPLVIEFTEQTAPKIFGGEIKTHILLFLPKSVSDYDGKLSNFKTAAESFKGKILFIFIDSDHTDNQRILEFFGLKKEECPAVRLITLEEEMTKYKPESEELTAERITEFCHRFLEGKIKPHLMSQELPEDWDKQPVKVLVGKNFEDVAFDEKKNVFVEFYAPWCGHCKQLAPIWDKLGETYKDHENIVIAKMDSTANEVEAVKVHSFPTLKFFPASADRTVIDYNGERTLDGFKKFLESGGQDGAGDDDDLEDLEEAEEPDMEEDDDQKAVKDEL
Dear colleague, please return just the value in µM, with no unit written.

The observed IC50 for CCOC(=O)CNC(=O)[C@@H]1CCC/C1=C\[C@@H]1CCCN1C(=O)CNS(=O)(=O)c1cccc2c(N(C)C)cccc12 [Compound 3, dansylGPtransPGOEt] when tested with human CP4H1 (Homo sapiens, UniProt P13674) stands at 410

The observed IC50 for CCOC(=O)CNC(=O)[C@@H]1CCC/C1=C/[C@@H]1CCCN1C(=O)CNS(=O)(=O)c1cccc2c(N(C)C)cccc12 [Compound 5, dansylGPcisPGOEt] when tested with human CP4H1 (Homo sapiens, UniProt P13674) stands at 75
